Biological target: T1, Human CD137 extracellular domain (ECD) (human)
T1 construct: also called Human CD137 ECD; recombinant human CD137
T1 sequence (chain, as listed by the source limits assumed): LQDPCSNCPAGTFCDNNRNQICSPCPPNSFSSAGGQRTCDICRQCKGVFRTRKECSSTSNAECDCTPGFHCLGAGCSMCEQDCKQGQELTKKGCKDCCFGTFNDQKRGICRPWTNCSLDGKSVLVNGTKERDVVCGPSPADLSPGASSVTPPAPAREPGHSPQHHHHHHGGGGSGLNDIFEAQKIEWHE
Assay: SPR Biacore 8K, Ab captured on anti-human Fc, CD137 as analyte, 37 C
Quick list: kon per entry.
Give just the number in M⁻¹ s⁻¹; leave the unit off.

Some solved entries appear below for comparison.
binder="H1572L0581 (antibody, V domains shown, Dual-Ig with an Fc; also called DualAE26; dBBDu183H1572/dBBDu072L0581) VH: QVQLVESGGGLVQPGRSLRLSCAASGFKFSNVWFHWVRQAPGKGLEWVAQIKDKYNAYAAYYAPSVKGRFTISRDDSKNSIYLQMNSLKTEDTAVYYCHYVHYASASTLLPAEGVDAWGQGTTVTVSS VL: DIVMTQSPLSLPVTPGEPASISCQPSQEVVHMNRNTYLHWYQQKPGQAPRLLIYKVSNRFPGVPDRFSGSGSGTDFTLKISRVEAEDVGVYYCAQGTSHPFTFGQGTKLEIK" recordedmetric=kon readoutvalue=13900
binder="H0888L0581 (antibody, V domains shown, Dual-Ig with an Fc; also called DualAE02; dBBDu183H0888/dBBDu072L0581) VH: QVQLVESGGGLVQPGRSLRLSCAASGFKFSNVWMHWVRQAPGKGLEWVAQIKDKWNAYAAYYAPSVKGRFTISRDDSKNSIYLQMNSLKTEDTAVYYCHYIHYASASTLLPAFGIDAWGQGTTVTVSS VL: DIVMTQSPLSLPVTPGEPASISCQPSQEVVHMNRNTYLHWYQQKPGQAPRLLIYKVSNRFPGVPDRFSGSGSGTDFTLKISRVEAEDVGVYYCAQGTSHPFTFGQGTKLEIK" recordedmetric=kon readoutvalue=15000
binder="H1644L0939 (antibody, V domains shown, Dual-Ig with an Fc; also called DualAE16; dBBDu183H1644/dBBDu072L0939) VH: QVQLVESGGGLVQPGRSLRLSCAASGFVFSNVWFHWVRQAPGKGLEWVAQIKDYYNAYAAYYAPSVKGRFTISRDDSKNSIYLQMNSLKTEDTAVYYCHYVHYASASTLLPAEGVDAWGQGTTVTVSS VL: DIVMTQSPLSLPVTPGEPASISCQPSQEVVHMNRNTYLHWYQQKPGQAPRLLIYKVSNVFPGVPDRFSGSGSGTDFTLKISRVEAEDVGVYYCAQGTHHPFTFGQGTKLEIK" recordedmetric=kon readoutvalue=12100
binder="H1573L0581 (antibody, V domains shown, Dual-Ig with an Fc; also called DualAE07; dBBDu183H1573/dBBDu072L0581) VH: QVQLVESGGGLVQPGRSLRLSCAASGFKFSNVWFHWVRQAPGKGLEWVAQIKDYYNAYAAYYAPSVKGRFTISRDDSKNSIYLQMNSLKTEDTAVYYCHYVHYASASTLLPAFGVDAWGQGTTVTVSS VL: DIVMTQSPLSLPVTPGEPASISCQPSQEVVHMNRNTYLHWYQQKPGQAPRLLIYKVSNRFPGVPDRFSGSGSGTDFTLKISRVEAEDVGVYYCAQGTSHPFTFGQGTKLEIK" recordedmetric=kon readoutvalue=14600
binder="H1595L0581 (antibody, V domains shown, Dual-Ig with an Fc; also called DualAE24; dBBDu183H1595/dBBDu072L0581) VH: QVQLVESGGGLVQPGRSLRLSCAASGFKFSNTWMHWVRQAPGKGLEWVAQIKDKYNAYAAYYAPSVKGRFTISRDDSKNSIYLQMNSLKTEDTAVYYCHYIHYASASTLLPAFGVDAWGQGTTVTVSS VL: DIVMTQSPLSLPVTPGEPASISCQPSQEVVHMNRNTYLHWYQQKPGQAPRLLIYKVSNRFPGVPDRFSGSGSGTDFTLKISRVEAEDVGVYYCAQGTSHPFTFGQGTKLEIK" recordedmetric=kon readoutvalue=13800

Next up:
What kon value was documented for this binder, H1579L0581 (antibody, V domains shown, Dual-Ig with an Fc; also called DualAE25; dBBDu183H1579/dBBDu072L0581) VH: QVQLVESGGGLVQPGRSLRLSCAASGFKFSHVWFHWVRQAPGKGLEWVAQIKDKYNAYAAYYAPSVKGRFTISRDDSKNSIYLQMNSLKTEDTAVYYCHYVHYASASTLLPAFGVDAWGQGTTVTVSS VL: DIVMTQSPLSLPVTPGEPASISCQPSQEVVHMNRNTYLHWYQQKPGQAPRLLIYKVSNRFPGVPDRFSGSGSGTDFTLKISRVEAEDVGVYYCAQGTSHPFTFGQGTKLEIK ?
14800
